Value source: ChEMBL document CHEMBL1165965

assay_target: Serine/threonine-protein kinase MRCK gamma (Homo sapiens) (UniProt Q6DT37)
Sequence (Q6DT37 whole entry): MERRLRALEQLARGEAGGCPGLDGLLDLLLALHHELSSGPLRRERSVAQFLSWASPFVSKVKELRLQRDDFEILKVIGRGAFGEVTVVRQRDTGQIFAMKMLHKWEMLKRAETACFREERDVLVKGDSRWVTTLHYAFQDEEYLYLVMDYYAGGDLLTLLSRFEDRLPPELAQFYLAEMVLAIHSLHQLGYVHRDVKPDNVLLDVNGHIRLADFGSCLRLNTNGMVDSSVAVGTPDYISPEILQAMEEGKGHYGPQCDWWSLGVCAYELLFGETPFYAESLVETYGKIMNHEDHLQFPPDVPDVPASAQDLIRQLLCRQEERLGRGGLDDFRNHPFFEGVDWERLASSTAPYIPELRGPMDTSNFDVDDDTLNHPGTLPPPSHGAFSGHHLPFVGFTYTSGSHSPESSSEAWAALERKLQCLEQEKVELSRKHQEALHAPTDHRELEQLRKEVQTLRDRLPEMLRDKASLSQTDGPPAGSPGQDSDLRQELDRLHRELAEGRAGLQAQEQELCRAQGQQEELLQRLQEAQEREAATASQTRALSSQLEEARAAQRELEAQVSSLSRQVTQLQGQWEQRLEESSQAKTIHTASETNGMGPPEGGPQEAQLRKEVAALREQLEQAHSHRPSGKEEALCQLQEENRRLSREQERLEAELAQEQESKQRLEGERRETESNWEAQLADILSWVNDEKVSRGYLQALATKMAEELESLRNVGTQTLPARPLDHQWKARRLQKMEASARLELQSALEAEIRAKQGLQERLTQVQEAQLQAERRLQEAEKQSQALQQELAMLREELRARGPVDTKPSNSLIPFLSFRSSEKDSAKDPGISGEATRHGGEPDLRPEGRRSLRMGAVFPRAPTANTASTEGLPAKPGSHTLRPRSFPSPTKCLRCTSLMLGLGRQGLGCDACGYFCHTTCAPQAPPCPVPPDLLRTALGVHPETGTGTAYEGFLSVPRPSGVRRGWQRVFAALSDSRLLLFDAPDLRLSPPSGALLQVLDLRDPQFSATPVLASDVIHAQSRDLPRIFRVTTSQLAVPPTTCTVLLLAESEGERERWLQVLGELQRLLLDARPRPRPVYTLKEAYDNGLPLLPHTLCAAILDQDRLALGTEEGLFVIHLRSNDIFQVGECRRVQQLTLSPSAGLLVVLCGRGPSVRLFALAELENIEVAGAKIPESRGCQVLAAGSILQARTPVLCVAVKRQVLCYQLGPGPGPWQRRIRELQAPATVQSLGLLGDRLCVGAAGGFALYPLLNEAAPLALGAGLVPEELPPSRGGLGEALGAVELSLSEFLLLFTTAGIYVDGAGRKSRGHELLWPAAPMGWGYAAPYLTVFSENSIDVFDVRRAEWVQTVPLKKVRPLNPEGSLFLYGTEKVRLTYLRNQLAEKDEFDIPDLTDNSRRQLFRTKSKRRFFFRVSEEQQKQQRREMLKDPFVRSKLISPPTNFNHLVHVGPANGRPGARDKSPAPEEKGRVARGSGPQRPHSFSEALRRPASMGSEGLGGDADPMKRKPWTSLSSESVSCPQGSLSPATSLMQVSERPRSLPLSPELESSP
protocol_notes: Inhibition of DMPK2 at 1 uM
Answer each item with its documented inhibition.

smiles_text: O=C(O)c1ccc(-c2cnc3c(c2)N(Cc2cc(Cl)ccc2C(F)(F)F)CCN3)cc1
inhibition: < 50%
--
smiles_text: CN1CCN(c2ccc(-c3cnc4c(c3)N(Cc3cc(Cl)ccc3Cl)CCN4)cn2)CC1
inhibition: < 50%
--
smiles_text: O=C(c1ccc(-c2cnc3c(c2)N(Cc2cc(Cl)ccc2C(F)(F)F)CCN3)cc1)N1CCC(N2CCCC2)CC1
inhibition: < 50%

Short answer for "COC1CCN(C(=O)c2ccc(-c3cnc4c(c3)N(Cc3cc(Cl)ccc3C(F)(F)F)CCN4)cc2)CC1" : inhibition was < 50%
